The measurements presented in this section are drawn from PubChem BioAssay AID2060509.

Tested on: 485176-168-R4-J1-PDC spheroids with HUVEC/MSC, viability
Method: Anticancer human tumor 485176-168-R4-J1-PDC patient-derived pancreatic adenocarcinoma cell line growth inhibition [GQUAD]
Measurement setup: curve of first compound; second compound 0.1 µM
Endpoint label: IC50

{"columns": ["Compound", "Experimental target", "Endpoint label", "Assay value"],
 "data": [
  ["CC(=O)O[C@H]1C(=O)[C@@]2(C)[C@H]([C@H](OC(=O)c3ccccc3)[C@]3(O)C[C@H](OC(=O)[C@H](O)[C@@H](NC(=O)c4ccccc4)c4ccccc4)C(C)=C1C3(C)C)[C@]1(OC(C)=O)CO[C@@H]1C[C@@H]2O + Cc1[nH]c2ccc(F)cc2c1-c1nc2c3cccnc3c3ncccc3c2[nH]1", "485176-168-R4-J1-PDC spheroids with HUVEC/MSC, viability", "IC50", "< 0.0316 µM"],
  ["CC(C)(O)C1CCC(Nc2ccc3ncc(-c4cccc(C(F)(F)F)c4)n3n2)CC1 (centres undefined) + Cc1[nH]c2ccc(F)cc2c1-c1nc2c3cccnc3c3ncccc3c2[nH]1", "485176-168-R4-J1-PDC spheroids with HUVEC/MSC, viability", "IC50", "> 10 µM"],
  ["CCCS(=O)(=O)Nc1ccc(F)c(C(=O)c2c[nH]c3ncc(-c4ccc(Cl)cc4)cc23)c1F + CN(C)c1ccc(Nc2c3ccc(NC(=O)CCN4CCCC4)cc3nc3cc(NC(=O)CCN4CCCC4)ccc23)cc1", "485176-168-R4-J1-PDC spheroids with HUVEC/MSC, viability", "IC50", "> 10 µM"]
]}

Could you now look at the following compound, please?
Query: Which IC50 value belongs to CC(C)n1c(=O)n(C)c2cnc3cc(F)c(-c4ccc(OCCCN5CCCCC5)nc4)cc3c21 + Cc1cnc(CNC(=O)c2c(=O)c3ccc(N4CCCN(C)CC4)nc3n3c2sc2ccccc23)cn1 ?
Reply: < 0.0316 µM

* * *

Assign viability, T/C to each entry below.
Test system: 485176-168-R4-J1-PDC spheroids with HUVEC/MSC, viability
Method: Anticancer human tumor 485176-168-R4-J1-PDC cell line growth inhibition [GQUAD];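 also: spheroids exposed to compounds for seven days before readout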;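 as to viability, T/C: percent viability relative to DMSO vehicle control wells as 100%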
Measurement setup: second compound 0.1 µM; first compound 10 µM; stronger effect = lower value
One number for each entry, in %.

{"columns": ["Compound", "Unit of measure", "Assay value"],
 "data": [
  ["O=C(c1cc(Cc2n[nH]c(=O)c3ccccc23)ccc1F)N1CCN(C(=O)C2CC2)CC1 + Cc1cnc(CNC(=O)c2c(=O)c3ccc(N4CCCN(C)CC4)nc3n3c2sc2ccccc23)cn1", "%", 59.2],
  ["CC1COCCN1c1cc(C2(S(C)(=N)=O)CC2)nc(-c2ccnc3[nH]ccc23)n1 (stereo not drawn) + Cc1cnc(CNC(=O)c2c(=O)c3ccc(N4CCCN(C)CC4)nc3n3c2sc2ccccc23)cn1", "%", 12.1]
]}

Could you now look at the following compound, please?
Query: Which viability, T/C value belongs to O=C(NO)c1cnc(N2CCN(S(=O)(=O)c3ccc4ccccc4c3)CC2)nc1 + Cc1[nH]c2ccc(F)cc2c1-c1nc2c3cccnc3c3ncccc3c2[nH]1 ?
Reply: 0.19

* * *

System: 485176-168-R4-J1-PDC spheroids with HUVEC/MSC, viability
Method: Anticancer human tumor 485176-168-R4-J1-PDC cell line growth inhibition [GQUAD];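 also: spheroids exposed to compounds for seven days before readout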;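 as to viability, T/C: percent viability relative to DMSO vehicle control wells as 100%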
Measurement setup: second compound 0.316 µM; first compound 0.00999 µM; stronger effect = lower value
Assign viability, T/C to each entry below.
Answers are plain numbers, in %.

{"columns": ["Compound", "Assay value"],
 "data": [
  ["CCc1c2c(nc3ccc(O)cc13)-c1cc3c(c(=O)n1C2)COC(=O)[C@]3(O)CC + CN(C)c1ccc(Nc2c3ccc(NC(=O)CCN4CCCC4)cc3nc3cc(NC(=O)CCN4CCCC4)ccc23)cc1", 41.8],
  ["CC[C@@]1(O)C(=O)OCc2c1cc1n(c2=O)Cc2cc3c(CN(C)C)c(O)ccc3nc2-1 + Cc1cnc(CNC(=O)c2c(=O)c3ccc(N4CCCN(C)CC4)nc3n3c2sc2ccccc23)cn1", 64]
]}

Hi, could you look up viability, T/C for each item in my list?
1. CCc1c2c(nc3ccc(O)cc13)-c1cc3c(c(=O)n1C2)COC(=O)[C@]3(O)CC + Cc1cnc(CNC(=O)c2c(=O)c3ccc(N4CCCN(C)CC4)nc3n3c2sc2ccccc23)cn1
2. CC[C@@]1(O)C(=O)OCc2c1cc1n(c2=O)Cc2cc3c(CN(C)C)c(O)ccc3nc2-1 + Cc1[nH]c2ccc(F)cc2c1-c1nc2c3cccnc3c3ncccc3c2[nH]1
3. CCc1c2c(nc3ccc(O)cc13)-c1cc3c(c(=O)n1C2)COC(=O)[C@]3(O)CC + Cc1[nH]c2ccc(F)cc2c1-c1nc2c3cccnc3c3ncccc3c2[nH]1

Reply:
1. 30.9
2. 108
3. 38.2

Hi, could you look up viability, T/C for each item in my list?
1. CC[C@@]1(O)C(=O)OCc2c1cc1n(c2=O)Cc2cc3c(CN(C)C)c(O)ccc3nc2-1 + CN(C)c1ccc(Nc2c3ccc(NC(=O)CCN4CCCC4)cc3nc3cc(NC(=O)CCN4CCCC4)ccc23)cc1
2. Cc1[nH]c2ccccc2c1CCNCc1ccc(/C=C/C(=O)NO)cc1 + Cc1cnc(CNC(=O)c2c(=O)c3ccc(N4CCCN(C)CC4)nc3n3c2sc2ccccc23)cn1
3. Cn1ncnc1[C@H]1c2n[nH]c(=O)c3cc(F)cc(c23)N[C@@H]1c1ccc(F)cc1 + Cc1cnc(CNC(=O)c2c(=O)c3ccc(N4CCCN(C)CC4)nc3n3c2sc2ccccc23)cn1
4. Cn1ncnc1[C@H]1c2n[nH]c(=O)c3cc(F)cc(c23)N[C@@H]1c1ccc(F)cc1 + CN(C)c1ccc(Nc2c3ccc(NC(=O)CCN4CCCC4)cc3nc3cc(NC(=O)CCN4CCCC4)ccc23)cc1

Reply:
1. 107
2. 53.5
3. 64.8
4. 95.3
